- Experiment: Solubility of model compounds in aqueous solutions of polymer D4.1 (mixed directly with polymeric solution; Table 4B)
- Format: physicochemical
- Condition Notes: 10% (w/v) aqueous solution of diblock copolymer D4.1, aqueous with cosolvent or surfactant or cyclodextrin, thermodynamic from solid; D4.1 polymer concentration 10 w/v %, room temperature, duplicate

Compound	solubility at 24 h
Cc1cc(C=CC#N)cc(C)c1Nc1ccnc(Nc2ccc(C#N)cc2)n1	230 µg/mL
CC(=O)NC[C@H]1CN(c2ccc(N3Cc4cn(C)nc4C3)c(F)c2)C(=O)O1	100 µg/mL
Nc1nc(Nc2ccc(S(N)(=O)=O)cc2)nn1C(=O)c1c(F)cccc1F	5760 µg/mL
Cc1cc2c(cc1-c1cc(/C=C3\SC(=O)NC3=O)ccc1OC(F)(F)F)C(C)(C)CCC2(C)C	350 µg/mL
Cc1cc(C#N)cc(C)c1Oc1nc(Nc2ccc(C#N)cc2)nc(N)c1Br [TMC 125]	520 µg/mL
